Data origin: patent US20240217966A1

- Test target: Human GLP-1 receptor (Homo sapiens)
- Construct: expressed in transfected cells
- Test details: Measurement of GLP-1 receptor agonist activity (cAMP assay)
- Type: cell-based
- Stated conditions: CHO-K1, maximum effect, cAMP increase in GLP-1 R/CHO-K1 cells; 2 nM human GLP-1 (7-36) = 100%, DMSO only = 0%; read-out: Emax

[
  {
    "Smiles str": "C[C@H]1c2cc(OCc3ccc(Cl)cc3F)c(C(F)F)cc2CCN1Cc1nc2ccc(C(=O)O)cc2n1C[C@@H]1CCO1",
    "Emax, %": 105
  },
  {
    "Smiles str": "C[C@H]1c2nc(OCc3ccc(Cl)cn3)c(C(F)(F)F)cc2CCN1Cc1nc2c(F)cc(C(=O)O)cc2n1C[C@@H]1CCO1",
    "Emax, %": 115
  },
  {
    "Smiles str": "COc1ccc(COc2cc3c(cc2Cl)CCN(Cc2nc4ccc(C(=O)O)c(F)c4n2C[C@@H]2CCO2)[C@H]3C)cc1",
    "Emax, %": 91.3
  },
  {
    "Smiles str": "COc1cc(Cl)ccc1COc1nc2c(cc1C(F)(F)F)CCN(Cc1nc3ccc(C(=O)O)c(F)c3n1C[C@@H]1CCO1)C2",
    "Emax, %": 117
  },
  {
    "Smiles str": "O=C(O)c1ccc2nc(CN3CCc4cc(C(F)(F)F)c(OCc5c(F)cc(F)cc5F)nc4C3)n(C[C@@H]3CCO3)c2c1",
    "Emax, %": 105
  },
  {
    "Smiles str": "C[C@H]1c2cc(OCc3cc(F)c(Cl)cc3F)c(Cl)cc2CCN1Cc1nc2c(F)cc(C(=O)O)cc2n1C[C@@H]1CCO1",
    "Emax, %": 100
  },
  {
    "Smiles str": "COc1ccc(COc2cc3c(cc2C(F)(F)F)CCN(Cc2nc4c(OC)cc(C(=O)O)cc4n2C[C@@H]2CCO2)[C@H]3C)cc1",
    "Emax, %": 110
  },
  {
    "Smiles str": "C[C@H]1c2nc(OCc3cc(F)c(Cl)cc3F)c(C(F)(F)F)cc2CCN1Cc1nc2ccc(C(=O)O)c(F)c2n1C[C@@H]1CCO1",
    "Emax, %": 109
  },
  {
    "Smiles str": "C[C@H]1c2cc(OCc3ccccc3Cl)c(Cl)cc2CCN1Cc1nc2ccc(C(=O)O)c(F)c2n1C[C@@H]1CCO1",
    "Emax, %": 89
  },
  {
    "Smiles str": "O=C(O)c1ccc2nc(CN3CCc4cc(C(F)(F)F)c(OCc5ccc(Cl)cc5)nc4C3)n(C[C@@H]3CCO3)c2n1",
    "Emax, %": 110
  },
  {
    "Smiles str": "C[C@H]1c2cc(OCc3c(F)cc(F)cc3F)c(Cl)cc2CCN1Cc1nc2ccc(C(=O)O)c(F)c2n1C[C@@H]1CCO1",
    "Emax, %": 87.3
  },
  {
    "Smiles str": "COc1cc(C(=O)O)cc2c1nc(CN1CCc3cc(Cl)c(OCc4ccc(Cl)cc4)cc3[C@@H]1C)n2C[C@@H]1CCO1",
    "Emax, %": 125
  },
  {
    "Smiles str": "Cc1ccc(COc2nc3c(cc2C(F)(F)F)CCN(Cc2nc4ccc(C(=O)O)nc4n2C[C@@H]2CCO2)[C@H]3C)cc1",
    "Emax, %": 110
  }
]

====

Below, each of the compounds is paired with its reported pEC50 value.
- Test target: Human GLP-1 receptor (Homo sapiens)
- Construct: expressed in transfected cells
- Test details: Measurement of GLP-1 receptor agonist activity (cAMP assay)
- Assay type: cell-based
- Stated conditions: cAMP increase in GLP-1 R/CHO-K1 cells; 2 nM human GLP-1 (7-36) = 100%, DMSO only = 0%
pEC50: −log10 of the molar value.

[
  {
    "Compound": "C[C@H]1c2cc(OCc3ccc(F)cc3F)c(Cl)cc2CCN1Cc1nc2c(F)cc(C(=O)O)cc2n1C[C@@H]1CCO1 [Compound I-335]",
    "pEC50": 8.91
  },
  {
    "Compound": "Cc1ccc(COc2nc3c(cc2C(F)(F)F)CCN(Cc2nc4c(F)cc(C(=O)O)cc4n2C[C@@H]2CCO2)C3)cc1 [Compound I-381]",
    "pEC50": 9.15
  },
  {
    "Compound": "O=C(O)c1ccc2nc(CN3CCc4cc(C(F)(F)F)c(OCc5ccc(C6CC6)cc5)nc4C3)n(C[C@@H]3CCO3)c2c1 [Compound I-266]",
    "pEC50": 8.39
  },
  {
    "Compound": "COc1cc(C(=O)O)cc2c1nc(CN1CCc3cc(C(F)(F)F)c(OCc4ccc(OC(F)F)cc4F)cc3[C@@H]1C)n2C[C@@H]1CCO1 [Compound I-233]",
    "pEC50": 8.89
  },
  {
    "Compound": "COc1cc(Cl)ccc1COc1nc2c(cc1C(F)(F)F)CCN(Cc1nc3ccc(C(=O)O)cc3n1C[C@@H]1CCO1)C2 [Compound I-267]",
    "pEC50": 9.06
  },
  {
    "Compound": "C[C@H]1c2nc(OCc3ccc(Cl)cn3)c(C(F)(F)F)cc2CCN1Cc1nc2ccc(C(=O)O)cc2n1C[C@@H]1CCO1 [Compound I-247]",
    "pEC50": 9.45
  }
]

====

- Test target: Human GLP-1 receptor (Homo sapiens, UniProt P43220)
- Construct: expressed in transfected cells
- Sequence (P43220 24-463): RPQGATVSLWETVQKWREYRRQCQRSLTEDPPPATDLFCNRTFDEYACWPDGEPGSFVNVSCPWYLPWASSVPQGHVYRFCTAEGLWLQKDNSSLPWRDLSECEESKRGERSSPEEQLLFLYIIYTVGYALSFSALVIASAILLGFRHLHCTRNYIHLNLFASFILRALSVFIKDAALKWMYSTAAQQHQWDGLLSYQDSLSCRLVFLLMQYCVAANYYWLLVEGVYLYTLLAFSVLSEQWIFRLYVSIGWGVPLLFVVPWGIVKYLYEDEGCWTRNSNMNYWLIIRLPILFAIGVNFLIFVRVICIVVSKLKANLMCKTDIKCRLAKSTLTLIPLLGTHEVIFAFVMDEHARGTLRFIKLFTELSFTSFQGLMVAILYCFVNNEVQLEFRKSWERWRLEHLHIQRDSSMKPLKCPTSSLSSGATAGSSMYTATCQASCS
- Test details: Measurement of GLP-1 receptor agonist activity (cAMP assay)
- Format: cell-based
- Stated conditions: CHO-K1, maximum effect, cAMP increase in GLP-1 R/CHO-K1 cells; 2 nM human GLP-1 (7-36) = 100%, DMSO only = 0%; read-out: Emax
Measure name: Emax (%)

[
  {
    "Compound": "COc1ccc(COc2nc3c(cc2C(F)(F)F)CCN(Cc2nc4ccc(C(=O)O)c(F)c4n2C[C@@H]2CCO2)[C@H]3C)cc1 [Compound I-354]",
    "Measure name": "Emax",
    "Reading": 122
  },
  {
    "Compound": "C[C@H]1c2cc(OCc3ccc(Cl)cc3Cl)c(Cl)cc2CCN1Cc1nc2ccc(C(=O)O)cc2n1C[C@@H]1CCO1 [Compound I-311]",
    "Measure name": "Emax",
    "Reading": 124
  },
  {
    "Compound": "C[C@H]1c2nc(OCc3c(F)cc(Cl)cc3F)c(C(F)(F)F)cc2CCN1Cc1nc2ccc(C(=O)O)nc2n1C[C@@H]1CCO1 [Compound I-291]",
    "Measure name": "Emax",
    "Reading": 120
  },
  {
    "Compound": "C[C@H]1c2nc(OCc3ccc(Cl)cc3)c(C(F)(F)F)cc2CCN1Cc1nc2ccc(C(=O)O)cc2n1C[C@@H]1CCO1 [Compound I-249]",
    "Measure name": "Emax",
    "Reading": 145
  },
  {
    "Compound": "C[C@H]1c2nc(OCc3ccc(OC(F)F)cc3F)c(C(F)(F)F)cc2CCN1Cc1nc2ccc(C(=O)O)cc2n1C[C@@H]1CCO1 [Compound I-256]",
    "Measure name": "Emax",
    "Reading": 119
  },
  {
    "Compound": "COc1cc(C(=O)O)cc2c1nc(CN1CCc3cc(Cl)c(OCc4ccc(C)cc4)cc3[C@@H]1C)n2C[C@@H]1CCO1 [Compound I-340]",
    "Measure name": "Emax",
    "Reading": 105
  },
  {
    "Compound": "C[C@H]1c2nc(OCc3ccc(Cl)cc3Cl)c(C(F)(F)F)cc2CCN1Cc1nc2c(F)cc(C(=O)O)cc2n1C[C@@H]1CCO1 [Compound I-244]",
    "Measure name": "Emax",
    "Reading": 123
  },
  {
    "Compound": "COc1cc(Cl)ccc1COc1nc2c(cc1C(F)(F)F)CCN(Cc1nc3ccc(C(=O)O)c(F)c3n1C[C@@H]1CCO1)[C@H]2C [Compound I-357]",
    "Measure name": "Emax",
    "Reading": 123
  },
  {
    "Compound": "COc1cc(C(=O)O)cc2c1nc(CN1CCc3cc(C(F)(F)F)c(OCc4ccc(F)cc4)cc3[C@@H]1C)n2C[C@@H]1CCO1 [Compound I-236]",
    "Measure name": "Emax",
    "Reading": 106
  },
  {
    "Compound": "O=C(O)c1ccc2nc(CN3CCc4cc(C(F)(F)F)c(OCc5ccc(F)cc5)nc4C3)n(C[C@@H]3CCO3)c2c1 [Compound I-272]",
    "Measure name": "Emax",
    "Reading": 107
  },
  {
    "Compound": "COc1cc(C(=O)O)cc2c1nc(CN1CCc3cc(C(F)(F)F)c(OCc4ccc(Cl)cc4F)nc3C1)n2C[C@@H]1CCO1 [Compound I-390]",
    "Measure name": "Emax",
    "Reading": 107
  },
  {
    "Compound": "O=C(O)c1ccc2nc(CN3CCc4cc(C(F)(F)F)c(OCc5ccc(Cl)cc5Cl)nc4C3)n(C[C@@H]3CCO3)c2c1F [Compound I-298]",
    "Measure name": "Emax",
    "Reading": 109
  },
  {
    "Compound": "C[C@H]1c2nc(OCc3ccc(C#N)cc3F)c(C(F)(F)F)cc2CCN1Cc1nc2c(F)cc(C(=O)O)cc2n1C[C@@H]1CCO1 [Compound I-241]",
    "Measure name": "Emax",
    "Reading": 125
  },
  {
    "Compound": "COc1cc(Cl)ccc1COc1nc2c(cc1C(F)(F)F)CCN(Cc1nc3ccc(C(=O)O)cc3n1C[C@@H]1CCO1)[C@H]2C [Compound I-252]",
    "Measure name": "Emax",
    "Reading": 125
  },
  {
    "Compound": "C[C@H]1c2nc(OCc3ccc(OC(F)F)cc3F)c(C(F)(F)F)cc2CCN1Cc1nc2c(F)cc(C(=O)O)cc2n1C[C@@H]1CCO1 [Compound I-370]",
    "Measure name": "Emax",
    "Reading": 109
  },
  {
    "Compound": "COc1cc(C(=O)O)cc2c1nc(CN1CCc3cc(C(F)(F)F)c(OCc4ccc(F)cc4)nc3[C@@H]1C)n2C[C@@H]1CCO1 [Compound I-284]",
    "Measure name": "Emax",
    "Reading": 119
  },
  {
    "Compound": "COc1cc(C(=O)O)cc2c1nc(CN1CCc3cc(C(F)(F)F)c(OCc4ccc(OC(F)F)cc4F)cc3[C@@H]1C)n2C[C@@H]1CCO1 [Compound I-233]",
    "Measure name": "Emax",
    "Reading": 97.7
  },
  {
    "Compound": "C[C@H]1c2nc(OCc3ccc(Cl)cc3)c(C(F)(F)F)cc2CCN1Cc1nc2ccc(C(=O)O)nc2n1C[C@@H]1CCO1 [Compound I-348]",
    "Measure name": "Emax",
    "Reading": 129
  },
  {
    "Compound": "C[C@H]1c2cc(OCc3ccc(Cl)cc3F)c(Cl)cc2CCN1Cc1nc2ccc(C(=O)O)c(F)c2n1C[C@@H]1CCO1 [Compound I-324]",
    "Measure name": "Emax",
    "Reading": 100
  },
  {
    "Compound": "C[C@H]1c2nc(OCc3ccc(Cl)cc3Cl)c(C(F)(F)F)cc2CCN1Cc1nc2ccc(C(=O)O)nc2n1C[C@@H]1CCO1 [Compound I-351]",
    "Measure name": "Emax",
    "Reading": 121
  }
]
